For each of the variants below, state its self-cleavage.
B1: HDV Ribozyme (parent)
chain: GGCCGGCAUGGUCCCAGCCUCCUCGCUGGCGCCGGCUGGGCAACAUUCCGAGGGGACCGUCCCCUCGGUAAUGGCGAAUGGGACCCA

Variants of: B1
protocol_summary: self-cleavage, relative activity (ratio to wild type); higher = more cleavage; co-transcriptional
Numbers only.

# annotated cases, reported self-cleavage shown
# variant_key, reported_result
rows = [
    ("A78C G82C", 0.0831),
    ("C4A C75A", 0.157),
]

Pending variant:
Looking up A16C U27G , I see its self-cleavage listed as 0.138
